Hello, the source for this data is the RNAGym collection of RNA variant scans (doi:10.1073/pnas.2313332121), in case you need it.

B1: TPR t1 (parent)
chain: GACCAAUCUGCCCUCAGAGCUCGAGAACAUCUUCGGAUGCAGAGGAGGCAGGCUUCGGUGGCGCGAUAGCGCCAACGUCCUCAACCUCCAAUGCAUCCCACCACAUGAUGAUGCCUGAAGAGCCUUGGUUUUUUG

variants of: B1; experiment: polymerase ribozyme fitness, log enrichment relative to wild type (log ratio); higher = more active; in vitro selection for triplet polymerase activity
metric: polymerase ribozyme fitness (log ratio)

Known polymerase ribozyme fitness (log ratio) results, listed for orientation:
### Prompt Request the reported polymerase ribozyme fitness (log ratio) associated with C40G G60U A68G
### Response -4.86

### Prompt Which polymerase ribozyme fitness (log ratio) is listed for C4A C13U C15G A37C G113A A121C ?
### Response -6.02

### Prompt Reported polymerase ribozyme fitness (log ratio), variant G19A G39U G61U G120C U132A : ____
### Response -1.96

### Prompt Sample G45A A50U C124U U125G — what was its polymerase ribozyme fitness (log ratio)?
### Response -0.0022

### Prompt Looking for the measured polymerase ribozyme fitness (log ratio) of G17U A68G C73G U112C , can you help?
### Response -5.21

***
### Prompt # input variant: G19U G122U C123A U129A ; wanted: its polymerase ribozyme fitness (log ratio)
### Response -4.23

### Prompt I'd like to know its polymerase ribozyme fitness (log ratio). The variant in question is U7C C12A C88A U96A C104U
### Response -1.43

### Prompt Dear colleague, I am looking for the recorded polymerase ribozyme fitness (log ratio) of the following variant: A37U C70A
### Response -1.11

### Prompt Return reported polymerase ribozyme fitness (log ratio); argument: C53A C56A A84G U106C G113A
### Response -2.51

### Prompt I am curious: what polymerase ribozyme fitness (log ratio) value has been reported for C72U C97U U106C A108G ?
### Response -6.08
